- assay text: Intrinsic clearance in hepatic microsomes
- Type: in vitro ADME
- condition details: mouse, liver microsomes
measured quantity: CLint scaled (mL/min/kg)
Entry rule: numbers only, all in mL/min/kg.

Exercise: Form field: reported CLint scaled of COc1ccc(-c2cnc3c(-c4cccc5ncccc45)cnn3c2)cc1
Key: 617

----------
- assay text: Intrinsic clearance in hepatic microsomes
- Assay type: in vitro ADME
- condition details: rat, liver microsomes
measured quantity: CLint scaled (mL/min/kg)
Entry rule: numbers only, all in mL/min/kg.

Exercise: Form field: reported CLint scaled of COc1ccc(-c2cnc3c(-c4cccc5ncccc45)cnn3c2)cc1
Key: 148
